- target.entity: T1, human GIP receptor (human, UniProt P48546 22-466)
- T1 sequence (looked up): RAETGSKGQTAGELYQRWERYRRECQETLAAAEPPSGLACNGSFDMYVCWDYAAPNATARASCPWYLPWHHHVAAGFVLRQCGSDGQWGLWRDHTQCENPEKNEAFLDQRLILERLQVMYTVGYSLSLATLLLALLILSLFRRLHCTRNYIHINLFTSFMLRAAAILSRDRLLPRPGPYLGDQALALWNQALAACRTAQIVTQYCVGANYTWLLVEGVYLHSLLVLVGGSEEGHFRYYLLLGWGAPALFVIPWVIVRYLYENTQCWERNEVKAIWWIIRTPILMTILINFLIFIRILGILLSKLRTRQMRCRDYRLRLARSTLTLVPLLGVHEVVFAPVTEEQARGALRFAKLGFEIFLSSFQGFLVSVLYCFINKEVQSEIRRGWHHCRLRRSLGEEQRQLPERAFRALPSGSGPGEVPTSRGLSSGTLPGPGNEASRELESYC
- protocol.text: cell-based or functional assay
readout.name: cAMP Rel. A (%) against human GIP, human GIP R cells
Number first, unit second: that is the form wanted.

Observe how each entry below is paired with its result.
# binder, assay.result
measured = [
    ("YXQGTXTSDYSIXLDKKAQXAFIEFLLEXHPSSGAPPPS (Aib at 2; αMeF(2F) at 6; αMeL at 13; Lys 17 side chain AEEAc-AEEAc-γGlu-CO(CH2)18COOH; Aib at 20; Aib at 29; C-terminal amide (NH2)) [Compound 20]", "3020%"),
    ("YXQGTXTSDYSIXLDKKAQXAFIEYLLETGPSSGQPPPS (Aib at 2; αMeF at 6; αMeL at 13; Lys 17 side chain AEEAc-AEEAc-γGlu-CO(CH2)18COOH; Aib at 20; C-terminal amide (NH2)) [Compound 8]", "1510%"),
]

Can you look up the measured cAMP Rel. A (%) against human GIP, human GIP R cells of YXQGTXTSDYSIFLDKKAQXAFIEYLLEXHPSSGAPPPS (Aib at 2; αMeF(2F) at 6; Lys 17 side chain AEEAc-AEEAc-γGlu-CO(CH2)18COOH; Aib at 20; Aib at 29; C-terminal amide (NH2)) [Compound 18] for me?
862%
